Exercise: state measured IC50 for each of the molecules provided.
# Tested on: Human immunodeficiency virus 1
# MEASUREMENT DESCRIPTION: Antiviral activity against HIV1 LAI infected in human MT2 cells assessed as reduction in p24 Gag protein production incubated for 6 days by automated chemiluminescent enzyme immunoassay
# Format: functional, cell-based
# TEST CONTEXT: Human immunodeficiency virus 1, LAI, MT2, 144 h

INSERT INTO results (sample_smiles, target_under_test, observed) VALUES
  ('Cc1csc([C@H]2CCCN2C(=O)c2cccc(C(=O)N[C@@H](Cc3ccccc3)[C@H](O)CN(CC(C)C)S(=O)(=O)c3ccc(N)cc3)c2)n1', 'Human immunodeficiency virus 1', '189 nM'),
  ('COc1ccc(S(=O)(=O)N(CC(C)C)C[C@@H](O)[C@H](Cc2ccccc2)NC(=O)c2ccc(C(=O)N(C)Cc3nc(C)oc3C)cc2)cc1', 'Human immunodeficiency virus 1', '> 1000 nM');

Batch: IC50 for all items listed.
1. COc1ccc(S(=O)(=O)N(CC(C)C)C[C@@H](O)[C@H](Cc2ccccc2)NC(=O)c2cccc(C(=O)N(C)Cc3csc(C)n3)c2)cc1
2. COc1ccc(S(=O)(=O)N(CC(C)C)C[C@@H](O)[C@H](Cc2ccccc2)NC(=O)c2cccc(C(=O)N(C)Cc3nc(C)oc3C)c2)cc1
3. COc1ccc(S(=O)(=O)N(CC(C)C)C[C@@H](O)[C@H](Cc2ccccc2)NC(=O)c2cccc(C(=O)N3CCC[C@@H]3c3nc(C)cs3)c2)cc1
4. COc1ccc(S(=O)(=O)N(CC(C)C)C[C@@H](O)[C@H](Cc2ccccc2)NC(=O)c2cccc(C(=O)N(C)Cc3nc(C)co3)c2)cc1

[out]
1: 32 nM; 2: 31 nM; 3: 69 nM; 4: 581 nM

====

# MEASUREMENT DESCRIPTION: Inhibition of HIV1 protease using fluorogenic substrate by continuous fluorometric assay
# Set-up: species or system Human immunodeficiency virus 1
pKi: −log10 of the molar value.
Rule: pKi of 8 or more gives true (1); anything lower gives false (0).

Solved entries:
INSERT INTO assay_data (sample_smiles, category_label) VALUES
  ('COc1ccc(S(=O)(=O)N(CC(C)C)C[C@@H](O)[C@H](Cc2ccccc2)NC(=O)c2cccc(C(=O)N(C)Cc3nc(C)co3)c2)cc1', 'true (1)'),
  ('COc1ccc(S(=O)(=O)N(CC(C)C)C[C@@H](O)[C@H](Cc2ccccc2)NC(=O)c2cccc(CN3CCC[C@@H]3c3nc(C)cs3)c2)cc1', 'false (0)');

[in] hey, is pKi for this one >= 8? COc1ccc(S(=O)(=O)N(CC(C)C)C[C@@H](O)[C@H](Cc2ccccc2)NC(=O)c2cccc(C(=O)N3CCCC[C@@H]3c3nc(C)cs3)c2)cc1
[out] true (1)

[in] Further, for COc1ccc(S(=O)(=O)N(CC(C)C)C[C@@H](O)[C@H](Cc2ccccc2)NC(=O)c2cccc(C(=O)N3CCC[C@@H]3c3nc(C)cs3)c2)cc1 ?
[out] true (1)

[in] Further, for COc1ccc(S(=O)(=O)N(CC(C)C)C[C@@H](O)[C@H](Cc2ccccc2)NC(=O)c2ccccc2C(=O)N(C)Cc2nc(C)oc2C)cc1 ?
[out] false (0)

[in] Further, for COc1ccc(S(=O)(=O)N(CC(C)C)C[C@@H](O)[C@H](Cc2ccccc2)NC(=O)c2cccc(C(=O)N(C)Cc3nc(C)oc3C)c2)cc1 ?
[out] true (1)

====

Exercise: state measured Ki for each of the compounds provided.
# MEASUREMENT DESCRIPTION: Inhibition of HIV1 protease using fluorogenic substrate by continuous fluorometric assay
# Parameters: species or system Human immunodeficiency virus 1
Numbers only, in pM.

INSERT INTO results (sample_smiles, observed) VALUES
  ('COc1ccc(S(=O)(=O)N(CC(C)C)C[C@@H](O)[C@H](Cc2ccccc2)NC(=O)c2cccc(C(=O)N3CCC[C@H]3c3nc(C)cs3)c2)cc1', 30800),
  ('COc1ccc(S(=O)(=O)N(CC(C)C)C[C@@H](O)[C@H](Cc2ccccc2)NC(=O)c2cccc(C(=O)N(C)Cc3coc(C)n3)c2)cc1', 640),
  ('COc1ccc(S(=O)(=O)N(CC(C)C)C[C@@H](O)[C@H](Cc2ccccc2)NC(=O)c2cncc(C(=O)N3CCC[C@@H]3c3nc(C)cs3)c2)cc1', 2500),
  ('COc1ccc(S(=O)(=O)N(CC(C)C)C[C@@H](O)[C@H](Cc2ccccc2)NC(=O)c2cccc(C(=O)N3CC[C@@H](c4nc(C)cs4)C3)c2)cc1', 490);

Batch: Ki for all items listed.
1. COc1ccc(S(=O)(=O)N(CC(C)C)C[C@@H](O)[C@H](Cc2ccccc2)NC(=O)c2cccc(C(=O)N3CSC[C@@H]3c3nc(C)cs3)c2)cc1
2. COc1ccc(S(=O)(=O)N(CC(C)C)C[C@@H](O)[C@H](Cc2ccccc2)NC(=O)c2cccc(C(=O)N3CC[C@H](c4nc(C)cs4)C3)c2)cc1
3. COc1ccc(S(=O)(=O)N(CC(C)C)C[C@@H](O)[C@H](Cc2ccccc2)NC(=O)c2cccc(C(=O)N(C)Cc3csc(C)n3)c2)cc1
4. COCc1coc([C@H]2CCCN2C(=O)c2cccc(C(=O)N[C@@H](Cc3ccccc3)[C@H](O)CN(CC(C)C)S(=O)(=O)c3ccc(OC)cc3)c2)n1

[out]
1: 760; 2: 400; 3: 107; 4: 800

====

# Test system: Human immunodeficiency virus 1
# MEASUREMENT DESCRIPTION: Antiviral activity against HIV1 LAI infected in human MT2 cells assessed as reduction in p24 Gag protein production incubated for 6 days by automated chemiluminescent enzyme immunoassay
# Type: functional, cell-based
# TEST CONTEXT: Human immunodeficiency virus 1, LAI, MT2, 144 h
Exercise: state measured IC50 for each of the molecules provided.

INSERT INTO results (sample_smiles, metric_name, observed) VALUES
  ('COc1ccc(S(=O)(=O)N(CC(C)C)C[C@@H](O)[C@H](Cc2ccccc2)NC(=O)c2cccc(C(=O)N3CCC[C@@H]3c3nc(C)co3)c2)cc1', 'IC50', '0.033 µM'),
  ('COc1ccc(S(=O)(=O)N(CC(C)C)C[C@@H](O)[C@H](Cc2ccccc2)NC(=O)c2cccc(C(=O)N(C)Cc3coc(C)n3)c2)cc1', 'IC50', '0.023 µM');

Continue with the molecule presented below.
[in] For the molecule shown here, COc1ccc(S(=O)(=O)N(CC(C)C)C[C@@H](O)[C@H](Cc2ccccc2)NC(=O)c2cccc(C(=O)N3CC[C@H](c4nc(C)cs4)C3)c2)cc1 , give the reported IC50.
[out] 0.109 µM

====

# Test system: Human immunodeficiency virus 1
# MEASUREMENT DESCRIPTION: Antiviral activity against HIV1 LAI infected in human MT2 cells assessed as reduction in p24 Gag protein production incubated for 6 days by automated chemiluminescent enzyme immunoassay
# Type: functional, cell-based
# TEST CONTEXT: Human immunodeficiency virus 1, LAI, MT2, 144 h
Exercise: state measured pIC50 for each of the compounds provided.
One number for each entry, as −log10 of the molar value.

INSERT INTO assay_data (sample_smiles, observed) VALUES
  ('CNc1cc(C(=O)N[C@@H](Cc2ccccc2)[C@H](O)CN(CC(C)C)S(=O)(=O)c2ccc(OC)cc2)cc(C(=O)N(C)Cc2nc(C)oc2C)c1', 6.22);

Continue with the compound presented below.
[in] For the compound shown here, COc1ccc(S(=O)(=O)N(CC(C)C)C[C@@H](O)[C@H](Cc2ccccc2)NC(=O)c2cc(O)cc(C(=O)N(C)Cc3nc(C)oc3C)c2)cc1 , give the reported pIC50.
[out] 6.54

====

# MEASUREMENT DESCRIPTION: Inhibition of HIV1 protease using fluorogenic substrate by continuous fluorometric assay
# Design: species or system Human immunodeficiency virus 1
pKi: −log10 of the molar value.
Rule: pKi of 9 or more gives satisfied; anything lower gives not satisfied.

Solved entries:
INSERT INTO assay_data (sample_smiles, category_label) VALUES
  ('COc1ccc(S(=O)(=O)N(CC(C)C)C[C@@H](O)[C@H](Cc2ccccc2)NC(=O)c2cccc(C(=O)N3CCC[C@@H]3c3nc(C)co3)c2)cc1', 'satisfied'),
  ('COc1ccc(S(=O)(=O)N(CC(C)C)C[C@@H](O)[C@H](Cc2ccccc2)NC(=O)c2ccc(C(=O)N(C)Cc3nc(C)oc3C)cc2)cc1', 'not satisfied'),
  ('CNc1cc(C(=O)N[C@@H](Cc2ccccc2)[C@H](O)CN(CC(C)C)S(=O)(=O)c2ccc(OC)cc2)cc(C(=O)N(C)Cc2nc(C)oc2C)c1', 'not satisfied');

Could you now look at the following compound, please?
[in] hey, is pKi for this one >= 9? COc1ccc(S(=O)(=O)N(CC(C)C)C[C@@H](O)[C@H](Cc2ccccc2)NC(=O)c2cc(O)cc(C(=O)N(C)Cc3nc(C)oc3C)c2)cc1
[out] satisfied

Measured values drawn from ChEMBL document CHEMBL4043088 for this set.
